Data provenance: PubChem BioAssay

assay: inhibitors of hydroxyurea-induced Chk1 phosphorylation, primary screen, imaging, HeLa, phospho-Chk1 nuclear intensity (AID 1187); details: hydroxyurea-induced phospho-Chk1 immunofluorescence imaging, higher = more signal; note: test concentration not given here
Measured z-score, listed per entry.

[
  {
    "compound": "CCOC(=O)C1=CC[C@@H](c2ccccc2C(F)(F)F)N(S(=O)(=O)c2ccc(C)cc2)C1",
    "z-score": -0.341
  },
  {
    "compound": "Cc1ccc(F)cc1S(=O)(=O)N[C@@H]1CCN(Cc2ccc(OC(C)C)cc2)C1",
    "z-score": 1.54
  },
  {
    "compound": "C=C(/C(=C/C[C@@H](OC(=O)c1ccncc1)c1ccc(OCCO)cc1)c1cc(C(=O)OC)ccc1OC)C(C)C",
    "z-score": -0.125
  },
  {
    "compound": "C[C@@H]1ON(c2ccc(C(=O)OC(C)(C)C)cc2)[C@H](c2ccc(Br)cc2)[C@H]1C(=O)N1C(=O)OC[C@H]1Cc1ccccc1",
    "z-score": -0.237
  },
  {
    "compound": "CCOC(=O)[C@H]1C/C=C/C[C@H](C(=O)OCC)C(=O)O[C@H]2[C@@H](OC)O[C@H](CO)[C@@H](OC(=O)CCc3ccccc3)[C@@H]2OC1=O",
    "z-score": -0.23
  },
  {
    "compound": "COCCOC(=O)N1C(=O)[C@@]2(c3ccccc31)[C@H](c1ccc(OCCO)cc1)N1[C@H](c3ccccc3)[C@H](c3ccccc3)OC(=O)[C@H]1[C@@H]2C(=O)Nc1nc2ccccc2s1",
    "z-score": -0.178
  },
  {
    "compound": "CC(C)N1C(=O)[C@@]2(c3ccc([N+](=O)[O-])cc3)CC(=O)N(C3CCCCC3)[C@@H]2c2ccc(CO)cc21",
    "z-score": -0.141
  },
  {
    "compound": "O=C1OCCC=C[C@H]2OC34C=CCN(c5ccc(Cl)cc5)C(=O)[C@H]3N(CCCCCO)C(=O)[C@@H]4C12 (some centres undefined)",
    "z-score": 0.434
  },
  {
    "compound": "COc1ccc(C(O)C2C=CC3C(=O)N(c4ccccc4)C(=O)C3N2Nc2ccc(C#N)cc2)c2ccccc12 (centres undefined)",
    "z-score": -0.468
  },
  {
    "compound": "COc1cc(CO)cc(I)c1O[C@H]1C=C(C(=O)NCCO)C[C@@H](NCc2ccccc2F)[C@@H]1O",
    "z-score": 0.959
  },
  {
    "compound": "COC(=O)[C@@]1(Cc2ccccc2)[C@H]2c3cc(C(=O)N4CCCC4)n(C[C@H](O)CO)c3C[C@H]2CN1C(=O)c1ccccc1",
    "z-score": 0.777
  },
  {
    "compound": "COc1ccc([Si](C)(C)[C@H]2[C@H](CCO)O[C@@]3(C(=O)N(Cc4cccc(N5CCCCC5=O)c4)c4ccccc43)[C@@H]2C)cc1",
    "z-score": -0.572
  },
  {
    "compound": "COc1cc(OC)c(C(O)C2C=CC3C(=O)N(c4ccccc4)C(=O)C3N2Nc2ccc(C#N)cc2)cc1Br (centres undefined)",
    "z-score": -0.795
  },
  {
    "compound": "C=CCNC(=O)[C@H]1[C@@H]2C(=O)O[C@@H](c3ccccc3)[C@@H](c3ccccc3)N2[C@@H](c2ccccc2OCCO)[C@]12C(=O)N(C(=O)OCCOC)c1ccc(C#CC3=CCCCC3)cc12",
    "z-score": 1.47
  }
]
